The reader will find reported melting point values listed item by item below.

Some solved cases for reference:
| COMPOUND | melting point |
| --- | --- |
| COc1ccccc1NC(C(N)=O)c1c(Cl)cccc1Cl (stereo not given) | 192 °C |
| Cc1cc(O)c(C(=O)Nc2ccc(S(=O)(=O)C(F)(F)F)cc2Cl)c(C)c1S(C)=O (stereo not given) | 205 to 206 °C |
| CC(C)C[C@@H](C=O)NC(=O)[C@H](Cc1c[nH]cn1)NC(=O)[C@H](Cc1c[nH]c2ccccc12)NC(=O)OCc1ccccc1 | 109 to 110 °C |
| O=S1(=O)NC(C2CCCCC2)Nc2ccc(S(=O)(=O)c3ccccc3)cc21 (stereo not given) | 243 to 245 °C |

Here is the next item to consider.
May I ask what melting point has been recorded for `O=c1c(-c2ccccc2)c(-c2ccccc2)sn1-c1ccccc1` ?
175 to 176 °C

---

The reader will find reported melting point values listed item by item below.

| COMPOUND | melting point |
| --- | --- |
| CCOS(=O)(=O)c1nc2nc(C)cc(Cl)n2n1 | 166 to 169 °C |
| Cc1ccccc1C(=S)N1CC1C#N (centres undefined) | 67 to 69 °C |
| CCCCCCCC(=O)Nc1cccc(-c2cc(=O)cc(C(=O)O)o2)c1 | 242 to 247 °C |
| COC(=O)C=Cc1cc(NC2CCN(Cc3ccccc3)CC2)ccc1C | 140 to 142 °C |
| COc1ccc(N2CCN(c3c(C)c(C)c4c(c3C)CC(C)(CNC(C)=O)O4)CC2)cc1 (centres undefined) | 146 to 152 °C |

May I ask what melting point has been recorded for `CC(C)n1nc(-c2nc(C(=O)O)c(N)nc2-c2ccccc2)ccc1=O` ?
233 to 235 °C

May I ask what melting point has been recorded for O=C(c1cc2ccccc2[nH]1)N1CCOCC1Cl (centres undefined) ?
254 to 255 °C

---

QUANTITY_MEASURED: melting point

Some solved cases for reference:
| COMPOUND | READING |
| --- | --- |
| COc1ccccc1N1CCN(C(=O)CCCN2CC=C(c3c[nH]c4cc(F)ccc34)CC2)CC1 | 118 to 120 °C |
| N#CCC(=O)c1ccccc1C1(c2ccccc2)OCC(CCl)O1 (centres undefined) | 107 to 110 °C |
| NS(=O)(=O)c1ccc(-c2cc(-c3nc(-c4ccc(F)c(F)c4)cc(C(F)(F)F)n3)ccn2)s1 | 281 °C |

May I ask what melting point has been recorded for `CN(C)Cc1cc(C(=O)c2ccc(F)cc2)cc(C(C)(C)C)c1O` ?
112 to 113 °C

May I ask what melting point has been recorded for `C=Cc1ccccc1C(=O)n1nnc2ccccc2c1=O` ?
120 °C

May I ask what melting point has been recorded for `CC(C)CCNC(=O)c1ccccc1-c1ccccc1CNC(=O)OCc1ccccc1` ?
112 °C

---

The reader will find reported melting point values listed item by item below.

| COMPOUND | melting point |
| --- | --- |
| CCOC(=O)C1=C(C)Nc2ccn(CCCN(C)C)c(=O)c2C1c1cccc([N+](=O)[O-])c1 (stereo unspecified) | 212 to 213 °C |
| COc1ccc(N2CCN(c3c(C)c(C)c4c(c3C)C(c3ccco3)C(C)(C)O4)CC2)cc1 (stereo unspecified) | 110 to 111 °C |
| CC(C)(C)C(=O)OCOC(=O)Cc1ccc(O)cc1 | 159 to 161 °C |
| O=C(O)CCCOc1cccc(CCNC(=O)C2Cc3ccccc3N2S(=O)(=O)c2ccc(-c3cccc(C(F)(F)F)c3)cc2)c1 (stereo unspecified) | 70 °C |

May I ask what melting point has been recorded for CCN(CC)C(=O)n1cc(C(=O)C2CSC(c3cccnc3)N2)c2ccccc21 (stereo unspecified) ?
84 °C

May I ask what melting point has been recorded for `O=[N+]([O-])c1ccc(CSc2ccc(Cl)cc2)cc1` ?
66 to 68 °C

May I ask what melting point has been recorded for `CC(C)c1ccc(C(=O)N2CCOCC2)cc1N` ?
112 to 115 °C

May I ask what melting point has been recorded for CC(COc1ccccc1C(=O)C(=O)c1ccccc1OCC(C)CN(C)C)CN(C)C (stereo unspecified) ?
69 to 70 °C

May I ask what melting point has been recorded for `COc1ccc(C[C@@H]2CCc3ncc(C)cc3C2)cc1` ?
46 to 48 °C

May I ask what melting point has been recorded for `COc1cccc(OC)c1-c1cc2cnc(N)nc2nc1N` ?
> 300 °C

May I ask what melting point has been recorded for `CCc1cc(N(C)Cc2ccc3oc(-c4ccccc4C#N)c(Br)c3c2)n2nccc2n1` ?
130 to 136 °C

May I ask what melting point has been recorded for CN1CCC(OC(c2ccccc2)c2nc3ccccc3s2)CC1 (stereo unspecified) ?
115 °C

May I ask what melting point has been recorded for CCC(O)c1cc(-c2ccccc2)no1 (stereo unspecified) ?
101 to 102 °C

May I ask what melting point has been recorded for Cn1cnc(S(=O)(=O)Nc2ccc(C(c3c(O)c4c(oc3=O)CCCCCC4)C3CC3)cc2)c1 (stereo unspecified) ?
238 to 242 °C

May I ask what melting point has been recorded for `COC(=O)c1[nH]c2ccccc2c1Oc1ccc(Cl)cc1[N+](=O)[O-]` ?
171 to 172 °C

May I ask what melting point has been recorded for `CSCc1c[nH]c(=O)[nH]c1=O` ?
239 to 241 °C

May I ask what melting point has been recorded for `CN(C)c1ccncc1CCCOc1ccccc1OCCCC(=O)O` ?
106 to 108 °C

May I ask what melting point has been recorded for `CS(=O)(=O)Nc1cc2occc(=O)c2cc1Oc1ccccc1` ?
217 to 218 °C

May I ask what melting point has been recorded for `O=C1C(=O)N2CCOc3cccc1c32` ?
188 °C
